tested on: ATP; assay: switch fluorescence ratio, 500 uM ATP over buffer (Cy3 cluster intensity, sum of 5 cycles each) (fold (ratio)); higher = stronger signal-on switching upon ATP binding; sequences stand for … in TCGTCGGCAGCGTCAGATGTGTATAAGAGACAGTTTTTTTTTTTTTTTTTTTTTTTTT…TC; conditions: aptamer strand: ATP DNA aptamer (quencher-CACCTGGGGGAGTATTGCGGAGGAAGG + anchor), 100 nM annealed; ATP concentration: 500 uM;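 also: ATP exposure 15 min at 22 °C before imaging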
Please enter 1 where switch fluorescence ratio is greater than or equal to 1, and -1 where it is lower.

Check out these entries, answers already filled in.
input_sequence=GGGGCAATGT qualitative_label=1
input_sequence=ACGGCTGAGC qualitative_label=1
input_sequence=TATGAGCTGG qualitative_label=-1
input_sequence=ACCCCGGTAA qualitative_label=1
input_sequence=TACTGGAAGG qualitative_label=-1
input_sequence=TCATGGGGAG qualitative_label=1

Please look at the following sequence next.
q: For this sequence, is measured switch fluorescence ratio 1 or higher? "CGGCCAATAA"
a: 1
